test: Ocular pharmacokinetics in rabbit eyes; assay type: in vivo; conditions: New Zealand white, rabbit, vitreous, 50 μg/eye, solution formulation in 2% 2-hydroxypropyl-β-cyclodextrin, intravitreal 50 μg/eye, New Zealand white rabbits; read-out: terminal half-life, vitreous tissue (converted)
MEASURED QUANTITY: half-life

- CHEMICAL SMILES: "CCc1cc(O)c(F)cc1-c1cc(F)c2c(-c3nc4c([nH]3)CCN(C(=O)CN3CCOCC3)C4)n[nH]c2c1"
  MEASURED QUANTITY: "half-life"
  VALUE REPORTED: "~48 h"

###

assay: Lung and plasma pharmacokinetics in mice; assay type: in vivo, mouse; conditions: mouse, lung and plasma, 5 μg/mouse; BALB/c mice, Form 1 suspension 0.1 mg/mL, 50 μL by oral aspiration; read-out: lung to plasma AUC ratio
MEASURED QUANTITY: Kp

- CHEMICAL SMILES: "CCc1cc(O)c(F)cc1-c1cc(F)c2c(-c3nc4c([nH]3)CCN(C(=O)CN3CCOCC3)C4)n[nH]c2c1"
  VALUE REPORTED: 1780
